# target.of.assay: human TRPV1 (Homo sapiens (Human))
# Sequence (Q8NER1 whole entry): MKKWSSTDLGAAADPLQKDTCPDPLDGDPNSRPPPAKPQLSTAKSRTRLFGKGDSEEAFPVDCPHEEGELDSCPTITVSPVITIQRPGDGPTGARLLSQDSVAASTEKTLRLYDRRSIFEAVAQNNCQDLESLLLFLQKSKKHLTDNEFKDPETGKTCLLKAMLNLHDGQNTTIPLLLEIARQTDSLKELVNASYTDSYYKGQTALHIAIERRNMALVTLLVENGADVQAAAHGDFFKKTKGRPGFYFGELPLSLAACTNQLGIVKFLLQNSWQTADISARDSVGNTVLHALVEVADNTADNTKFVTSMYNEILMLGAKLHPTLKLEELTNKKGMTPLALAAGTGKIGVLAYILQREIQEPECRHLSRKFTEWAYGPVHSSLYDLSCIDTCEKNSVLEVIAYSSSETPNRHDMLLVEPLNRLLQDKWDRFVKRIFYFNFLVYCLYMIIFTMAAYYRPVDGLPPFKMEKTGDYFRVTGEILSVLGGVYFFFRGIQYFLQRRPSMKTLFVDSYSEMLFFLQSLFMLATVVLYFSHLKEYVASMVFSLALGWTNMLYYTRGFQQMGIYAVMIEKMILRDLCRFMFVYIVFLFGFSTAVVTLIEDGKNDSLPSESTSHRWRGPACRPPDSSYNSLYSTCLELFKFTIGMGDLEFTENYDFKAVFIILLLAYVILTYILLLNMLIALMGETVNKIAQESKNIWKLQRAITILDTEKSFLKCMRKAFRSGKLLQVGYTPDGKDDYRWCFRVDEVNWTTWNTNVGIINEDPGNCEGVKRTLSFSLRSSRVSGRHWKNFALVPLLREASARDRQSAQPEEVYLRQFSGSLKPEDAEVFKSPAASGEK
# procedure.details: Capsaicin Activation Assay (intracellular Ca2+, FLIPR)
# run.parameters: recombinant HEK293 cells expressing hTRPV1, 50 nM capsaicin

# cpd.smiles, target.of.assay, IC50 / nM
measured = [
    ("CC1(C)C[C@@H](NC(=O)Nc2ccc3c(c2)NC(=O)CO3)c2ccc(Cl)cc2O1", "human TRPV1 (Homo sapiens (Human))", 56),
    ("CC1(C)C[C@@H](NC(=O)Nc2ccc3c(c2)NC(=O)N(CCO)C3)c2ccc(F)c(Cl)c2O1", "human TRPV1 (Homo sapiens (Human))", 200),
    ("CCN1C(=O)NCc2c(NC(=O)N[C@@H]3CC(CF)(CF)Oc4cc(Cl)ccc43)cccc21", "human TRPV1 (Homo sapiens (Human))", 130),
    ("CN1C(=O)CCc2ccc(NC(=O)N[C@@H]3CC(C)(C)Oc4c3ccc(Cl)c4F)cc21", "human TRPV1 (Homo sapiens (Human))", 120),
    ("CCCC1(CCC)C[C@@H](NC(=O)Nc2ccc3c(c2)NC(=O)N(C)C3)c2cccc(F)c2O1", "human TRPV1 (Homo sapiens (Human))", 450),
    ("CCC1(CC)C[C@@H](NC(=O)Nc2ccc3c(c2)N(C)C(=O)CC3)c2cc(F)ccc2O1", "human TRPV1 (Homo sapiens (Human))", 220),
    ("CN1C(=O)NCc2c(NC(=O)N[C@@H]3CC(C)(C)Oc4cc(F)ccc43)cccc21", "human TRPV1 (Homo sapiens (Human))", 10),
    ("CN1C(=O)NCc2c(NC(=O)N[C@@H]3C[C@](C)(C(F)F)Oc4ccccc43)cccc21", "human TRPV1 (Homo sapiens (Human))", 32),
]
